Test system: U2OS
Experiment: Multiplex assay against U2OS
Type: toxicity, cell-based
Settings: human, 48 h, 10 µM, compound concentration 10 uM, replicate 2
measurement type: Population Fragmented Nuclei (%)

# compound, assay result
measured = [
    ("Cc1cccc(CN2CCN(C(c3ccccc3)c3ccc(Cl)cc3)CC2)c1.Cl.Cl (centres undefined)", 12),
    ("COc1cc2ncn(-c3cc(OCc4ccccc4C(F)(F)F)c(C(N)=O)s3)c2cc1OC [GW843682X]", 18),
    ("Cl.O=C(O)c1cc(-c2ccc(C3CCNCC3)cc2)c2ccc(-c3ccc(C(F)(F)F)cc3)cc2c1", 17),
    ("COc1ccc(-c2ccc3ncc4c(c3c2)n(-c2ccc(N3CCNCC3)c(C(F)(F)F)c2)c(=O)n4C)cn1.O=C(O)/C=C\\C(=O)O [BGT-226]", 85),
    ("CC(C)NC(=O)N1CC[C@H](NC2=Nc3cc(F)ccc3N(CC(F)F)c3ccc(Cl)cc32)C1", 13),
    ("CNC(=O)Nc1ccc(-c2nc(N3CC4CCC(C3)O4)c3cnn(C4CCC5(CC4)OCCO5)c3n2)cc1", 11),
    ("CC1=C(C(=O)Nc2cc3cn[nH]c3cc2F)C(c2ccc(C(F)(F)F)cc2)CC(=O)N1 (centres undefined)", 15),
    ("CCOC(=O)Nc1cc(-c2ccc(C)c(NS(C)(=O)=O)c2)nn2c(C)nnc12", 2),
    ("CCc1ccc(OCc2ccccc2C(=O)Nc2ccc3nc(C)cc(N)c3c2)cc1.Cl", 47),
]
